- method: Changes over time of Z to E transition by 19F NMR
- Format: physicochemical
- test context: 5 h, light 525 nm, 100 mM in DMSO
Parameter Z isomer, changes over time: see the listing below.

{"compound": "O=C(/C=C/c1ccc(Br)cc1)c1cccc(/N=N/c2c(F)cccc2F)c1 [Compound 17l]", "Z isomer, changes over time (%)": 69.92}
{"compound": "COc1cc(/C=C/C(=O)c2cccc(/N=N/c3c(F)cccc3F)c2)cc(OC)c1 [Compound 17j]", "Z isomer, changes over time (%)": 70.01}
{"compound": "COc1ccc(/C=C/C(=O)c2cccc(/N=N/c3c(F)cccc3F)c2)cc1OC [Compound 17i]", "Z isomer, changes over time (%)": 68.98}
{"compound": "COc1cc(/C=C/C(=O)c2cccc(/N=N/c3c(F)cccc3F)c2)cc(OC)c1OC [Compound 17k]", "Z isomer, changes over time (%)": 70.43}

* * *

- method: Changes over time of Z to E transition by 19F NMR
- Format: physicochemical
- test context: 7 h, light 525 nm, 100 mM in DMSO
Parameter Z isomer, changes over time: see the listing below.
endpoint name: Z isomer, changes over time

{"compound": "COc1cc(/C=C/C(=O)c2cccc(/N=N/c3c(F)cccc3F)c2)cc(OC)c1OC [Compound 17k]", "measured value": "67.93%"}
{"compound": "COc1cc(/C=C/C(=O)c2cccc(/N=N/c3c(F)cccc3F)c2)cc(OC)c1 [Compound 17j]", "measured value": "69.12%"}
{"compound": "COc1ccc(/C=C/C(=O)c2cccc(/N=N/c3c(F)cccc3F)c2)cc1OC [Compound 17i]", "measured value": "67.46%"}
{"compound": "O=C(/C=C/c1ccc(Br)cc1)c1cccc(/N=N/c2c(F)cccc2F)c1 [Compound 17l]", "measured value": "67.93%"}

* * *

- method: UV–VIS spectra of E/Z isomers in DMSO
- Format: physicochemical
- test context: between E and Z isomers
endpoint name: Δ λmax n→π* (nm)

{"compound": "COc1cc(/C=C/C(=O)c2cccc(/N=N/c3ccc(F)cc3)c2)cc(OC)c1 [Compound 17b]", "measured value": 8.1}
{"compound": "COc1cc(/C=C/C(=O)c2cccc(/N=N/c3ccc(F)cc3F)c2)cc(OC)c1 [Compound 17f]", "measured value": 14.0}
{"compound": "O=C(/C=C/c1ccc(Br)cc1)c1cccc(/N=N/c2c(F)cccc2F)c1 [Compound 17l]", "measured value": 30.7}
{"compound": "O=C(/C=C/c1ccc(Br)cc1)c1cccc(/N=N/c2ccc(F)cc2F)c1 [Compound 17h]", "measured value": 14.3}
{"compound": "COc1cc(/C=C/C(=O)c2cccc(/N=N/c3c(F)cccc3F)c2)cc(OC)c1 [Compound 17j]", "measured value": 30.9}
{"compound": "O=C(/C=C/c1ccc(Br)cc1)c1cccc(/N=N/c2ccc(F)cc2)c1 [Compound 17d]", "measured value": 6.7}

* * *

Parameter εmax (n→π*): see the listing below.
- method: UV–VIS spectra of E/Z isomers in DMSO
- Format: physicochemical
- test context: E isomer
- Description: For this purpose, the UV–VIS spectra were measured for all synthesized hybrids (17a–17l) at concentrations from 20 to 500 µM in dimethyl sulfoxide (DMSO) in light at λ 505 nm and for (17a–17c), (17e–17g), and (17i–17l) at λ 525 nm, respectively, as detailed in Table 1 (see Section S4.4 in Supplementary Materials).

{"compound": "COc1cc(/C=C/C(=O)c2cccc(/N=N/c3c(F)cccc3F)c2)cc(OC)c1 [Compound 17j]", "unit of measure": "dm^3·mol^−1·cm^−1", "εmax (n→π*)": 922}
{"compound": "COc1cc(/C=C/C(=O)c2cccc(/N=N/c3ccc(F)cc3F)c2)cc(OC)c1 [Compound 17f]", "unit of measure": "dm^3·mol^−1·cm^−1", "εmax (n→π*)": 872}
{"compound": "COc1cc(/C=C/C(=O)c2cccc(/N=N/c3ccc(F)cc3)c2)cc(OC)c1 [Compound 17b]", "unit of measure": "dm^3·mol^−1·cm^−1", "εmax (n→π*)": 688}
{"compound": "O=C(/C=C/c1ccc(Br)cc1)c1cccc(/N=N/c2ccc(F)cc2F)c1 [Compound 17h]", "unit of measure": "dm^3·mol^−1·cm^−1", "εmax (n→π*)": 796}
{"compound": "O=C(/C=C/c1ccc(Br)cc1)c1cccc(/N=N/c2c(F)cccc2F)c1 [Compound 17l]", "unit of measure": "dm^3·mol^−1·cm^−1", "εmax (n→π*)": 902}
{"compound": "O=C(/C=C/c1ccc(Br)cc1)c1cccc(/N=N/c2ccc(F)cc2)c1 [Compound 17d]", "unit of measure": "dm^3·mol^−1·cm^−1", "εmax (n→π*)": 660}

* * *

- method: Photostationary state (PSS) composition by 19F NMR
- Assay type: physicochemical
- test context: irradiation 525 nm, DMSO-d6
endpoint name: share of the Z configuration (PSS)

{"compound": "COc1ccc(/C=C/C(=O)c2cccc(/N=N/c3c(F)cccc3F)c2)cc1OC [Compound 17i]", "endpoint name": "share of the Z configuration (PSS)", "measured value": "74.84%"}
{"compound": "O=C(/C=C/c1ccc(Br)cc1)c1cccc(/N=N/c2c(F)cccc2F)c1 [Compound 17l]", "endpoint name": "share of the Z configuration (PSS)", "measured value": "75.44%"}
{"compound": "COc1cc(/C=C/C(=O)c2cccc(/N=N/c3c(F)cccc3F)c2)cc(OC)c1OC [Compound 17k]", "endpoint name": "share of the Z configuration (PSS)", "measured value": "74.39%"}
{"compound": "COc1cc(/C=C/C(=O)c2cccc(/N=N/c3c(F)cccc3F)c2)cc(OC)c1 [Compound 17j]", "endpoint name": "share of the Z configuration (PSS)", "measured value": "73.2%"}

* * *

- method: UV–VIS spectra of E/Z isomers in DMSO
- Assay type: physicochemical
- test context: Z isomer
endpoint name: λmax n→π* (Z) (nm)

{"compound": "COc1cc(/C=C/C(=O)c2cccc(/N=N/c3c(F)cccc3F)c2)cc(OC)c1 [Compound 17j]", "unit of measure": "nm", "measured value": 417.4}
{"compound": "COc1cc(/C=C/C(=O)c2cccc(/N=N/c3ccc(F)cc3F)c2)cc(OC)c1 [Compound 17f]", "unit of measure": "nm", "measured value": 427.9}
{"compound": "COc1cc(/C=C/C(=O)c2cccc(/N=N/c3ccc(F)cc3)c2)cc(OC)c1 [Compound 17b]", "unit of measure": "nm", "measured value": 434.0}
{"compound": "O=C(/C=C/c1ccc(Br)cc1)c1cccc(/N=N/c2ccc(F)cc2)c1 [Compound 17d]", "unit of measure": "nm", "measured value": 434.1}
{"compound": "O=C(/C=C/c1ccc(Br)cc1)c1cccc(/N=N/c2c(F)cccc2F)c1 [Compound 17l]", "unit of measure": "nm", "measured value": 417.9}
{"compound": "O=C(/C=C/c1ccc(Br)cc1)c1cccc(/N=N/c2ccc(F)cc2F)c1 [Compound 17h]", "unit of measure": "nm", "measured value": 426.9}

These measurements were taken from paper PMC12844124.
